Please respond with reported n2 (Hill Coefficient), Apo-Tf for every item in the list.
# TESTED ON: apotransferrin (apo-Tf) (Homo sapiens)
# Construct: purchased Sigma-Aldrich Chemical Co. (Schnelldorf, Germany)
# PROCEDURE TEXT: Apo-Tf fluorescence quenching binding study
# EXPERIMENTAL SETUP: apo-Tf 1 µM, 298 K
Just the number, please.

# input compound: `CCn1cc(C(=O)[O-])c(=O)c2ccc(C)nc21.CCn1cc(C(=O)[O-])c(=O)c2ccc(C)nc21.O.O.O.O.[Gd+3].[OH-]` ; wanted: its n2 (Hill Coefficient), Apo-Tf
1.20

// same read-out, input: `CCn1cc(C(=O)[O-])c(=O)c2ccc(C)nc21.CCn1cc(C(=O)[O-])c(=O)c2ccc(C)nc21.CCn1cc(C(=O)[O-])c(=O)c2ccc(C)nc21.O.O.O.O.O.O.O.O.[La+3]`
1.04

// same read-out, input: `CCn1cc(C(=O)[O-])c(=O)c2ccc(C)nc21.CCn1cc(C(=O)[O-])c(=O)c2ccc(C)nc21.O.O.O.[La+3].[OH-]`
1.82

// same read-out, input: `CCn1cc(C(=O)O)c(=O)c2ccc(C)nc21`
1.55

// same read-out, input: `CCn1cc(C(=O)[O-])c(=O)c2ccc(C)nc21.CCn1cc(C(=O)[O-])c(=O)c2ccc(C)nc21.O.O.O.O.[OH-].[Sm+3]`
1.71

---

Please respond with reported IC50 for every item in the list.
# Tested on: LoVo (human colorectal adenocarcinoma) cell line
# PROCEDURE TEXT: MTS cytotoxicity assay, LoVo cell line
# Assay type: cell-based
# EXPERIMENTAL SETUP: 48 h of incubation

# input compound: N.N.[Cl][Pt][Cl] [Cis-Pt, cisplatin, reference compound] ; wanted: its IC50
38.6 µM

// same read-out, input: `CCn1cc(C(=O)[O-])c(=O)c2ccc(C)nc21.CCn1cc(C(=O)[O-])c(=O)c2ccc(C)nc21.O.O.O.O.[Eu+3].[OH-]`
> 200 µM

// same read-out, input: `CCn1cc(C(=O)[O-])c(=O)c2ccc(C)nc21.CCn1cc(C(=O)[O-])c(=O)c2ccc(C)nc21.O.O.O.O.[Gd+3].[OH-]`
> 200 µM

---

Please respond with reported n1 (Number of Binding Sites), HSA for every item in the list.
# TESTED ON: human serum albumin (HSA) (Homo sapiens)
# Construct: purchased Sigma-Aldrich Chemical Co. (Schnelldorf, Germany)
# PROCEDURE TEXT: HSA fluorescence quenching binding study
# EXPERIMENTAL SETUP: HSA 2.5 µM, 298 K
Just the number, please.

# input compound: `CCn1cc(C(=O)[O-])c(=O)c2ccc(C)nc21.CCn1cc(C(=O)[O-])c(=O)c2ccc(C)nc21.O.O.O.[La+3].[OH-]` ; wanted: its n1 (Number of Binding Sites), HSA
1.09

// same read-out, input: `CCn1cc(C(=O)[O-])c(=O)c2ccc(C)nc21.CCn1cc(C(=O)[O-])c(=O)c2ccc(C)nc21.O.O.O.O.[OH-].[Sm+3]`
1.08

// same read-out, input: `CCn1cc(C(=O)[O-])c(=O)c2ccc(C)nc21.CCn1cc(C(=O)[O-])c(=O)c2ccc(C)nc21.O.[OH-].[Tb+3]`
1.12

// same read-out, input: `CCn1cc(C(=O)O)c(=O)c2ccc(C)nc21`
1.03

// same read-out, input: `CCn1cc(C(=O)[O-])c(=O)c2ccc(C)nc21.CCn1cc(C(=O)[O-])c(=O)c2ccc(C)nc21.CCn1cc(C(=O)[O-])c(=O)c2ccc(C)nc21.O.O.O.O.O.O.O.O.[La+3]`
1.16

// same read-out, input: `CCn1cc(C(=O)[O-])c(=O)c2ccc(C)nc21.CCn1cc(C(=O)[O-])c(=O)c2ccc(C)nc21.O.O.O.O.[Eu+3].[OH-]`
1.13

// same read-out, input: `CCn1cc(C(=O)[O-])c(=O)c2ccc(C)nc21.CCn1cc(C(=O)[O-])c(=O)c2ccc(C)nc21.O.O.O.O.[Gd+3].[OH-]`
1.15

---

# TESTED ON: apotransferrin (apo-Tf) (Homo sapiens, UniProt P02787)
# Construct: purchased Sigma-Aldrich Chemical Co. (Schnelldorf, Germany)
# Sequence (P02787 20-698): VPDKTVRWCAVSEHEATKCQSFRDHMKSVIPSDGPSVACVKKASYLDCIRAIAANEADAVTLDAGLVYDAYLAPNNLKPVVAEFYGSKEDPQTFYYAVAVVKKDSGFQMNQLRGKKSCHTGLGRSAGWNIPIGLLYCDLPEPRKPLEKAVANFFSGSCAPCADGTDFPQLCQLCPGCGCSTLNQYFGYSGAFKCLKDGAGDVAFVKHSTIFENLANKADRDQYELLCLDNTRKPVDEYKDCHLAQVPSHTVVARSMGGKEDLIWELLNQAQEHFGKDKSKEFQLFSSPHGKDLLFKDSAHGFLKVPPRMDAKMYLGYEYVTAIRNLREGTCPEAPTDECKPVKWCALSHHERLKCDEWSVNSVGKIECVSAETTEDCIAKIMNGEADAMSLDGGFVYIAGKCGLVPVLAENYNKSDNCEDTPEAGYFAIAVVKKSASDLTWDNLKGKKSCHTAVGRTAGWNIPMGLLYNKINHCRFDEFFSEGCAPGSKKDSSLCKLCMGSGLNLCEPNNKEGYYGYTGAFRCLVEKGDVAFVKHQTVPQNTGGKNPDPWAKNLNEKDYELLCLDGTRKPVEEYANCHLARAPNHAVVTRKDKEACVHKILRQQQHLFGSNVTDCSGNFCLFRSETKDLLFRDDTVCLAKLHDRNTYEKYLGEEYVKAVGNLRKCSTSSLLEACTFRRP
# PROCEDURE TEXT: Apo-Tf fluorescence quenching binding study
# EXPERIMENTAL SETUP: from Ksv* with τ0 = 10^−8 s, 298 K
# Procedure: Using a Jasco FP 6500 spectrofluorometer (Jasco, Tokyo, Japan) and quartz cells with a 1 cm path length, the fluorescence spectra of HSA and apo-Tf were recorded in the presence and absence of the examined substances. […] Using the following equation, the affinity constant (Ka) and the number of binding sites (n) have been calculated: (7) lgF0−F/F=lgKa+nlg[Q] […] Data were collected in triplicate, averaged, and expressed as mean value ± standard deviation (SD). […]
READOUT: Kq (bimolecular quenching constant), Apo-Tf (M⁻¹ s⁻¹)
Entry rule: numbers only, all in M⁻¹ s⁻¹.

# input compound: CCn1cc(C(=O)[O-])c(=O)c2ccc(C)nc21.CCn1cc(C(=O)[O-])c(=O)c2ccc(C)nc21.CCn1cc(C(=O)[O-])c(=O)c2ccc(C)nc21.O.O.O.O.O.O.O.O.[La+3] [La(nal)3, La(C12H11N2O3)3(H2O)2·6H2O] ; wanted: its Kq (bimolecular quenching constant), Apo-Tf
1.04e+13

// same read-out, input: CCn1cc(C(=O)[O-])c(=O)c2ccc(C)nc21.CCn1cc(C(=O)[O-])c(=O)c2ccc(C)nc21.O.[OH-].[Tb+3] [Tb(nal)2, Tb(C12H11N2O3)2(OH)(H2O)·1.5H2O]
2.23e+13

// same read-out, input: CCn1cc(C(=O)[O-])c(=O)c2ccc(C)nc21.CCn1cc(C(=O)[O-])c(=O)c2ccc(C)nc21.O.O.O.O.[Eu+3].[OH-] [Eu(nal)2, Eu(C12H11N2O3)2(OH)(H2O)·3H2O]
1.85e+13

// same read-out, input: CCn1cc(C(=O)[O-])c(=O)c2ccc(C)nc21.CCn1cc(C(=O)[O-])c(=O)c2ccc(C)nc21.O.O.O.O.[Gd+3].[OH-] [Gd(nal)2, Gd(C12H11N2O3)2(OH)(H2O)·3H2O]
7.8e+12

// same read-out, input: CCn1cc(C(=O)[O-])c(=O)c2ccc(C)nc21.CCn1cc(C(=O)[O-])c(=O)c2ccc(C)nc21.O.O.O.[La+3].[OH-] [La(nal)2, La(C12H11N2O3)2(OH)(H2O)·2H2O]
4.4e+12

// same read-out, input: CCn1cc(C(=O)O)c(=O)c2ccc(C)nc21 [Nalidixic acid]
1.02e+13

// same read-out, input: CCn1cc(C(=O)[O-])c(=O)c2ccc(C)nc21.CCn1cc(C(=O)[O-])c(=O)c2ccc(C)nc21.O.O.O.O.[OH-].[Sm+3] [Sm(nal)2, Sm(C12H11N2O3)2(OH)(H2O)·3H2O]
1.16e+13

---

# TESTED ON: apotransferrin (apo-Tf) (Homo sapiens, UniProt P02787)
# Construct: purchased Sigma-Aldrich Chemical Co. (Schnelldorf, Germany)
# PROCEDURE TEXT: Apo-Tf fluorescence quenching binding study
# EXPERIMENTAL SETUP: apo-Tf 1 µM, compound 0–8 µM, 298 K
READOUT: fa (fraction of fluorophore accessible to the quencher), Apo-Tf
Just the number, please.

# value lookup — system apotransferrin (apo-Tf) (Homo sapiens, UniProt P02787), readout fa (fraction of fluorophore accessible to the quencher), Apo-Tf, item `CCn1cc(C(=O)[O-])c(=O)c2ccc(C)nc21.CCn1cc(C(=O)[O-])c(=O)c2ccc(C)nc21.CCn1cc(C(=O)[O-])c(=O)c2ccc(C)nc21.O.O.O.O.O.O.O.O.[La+3]`
0.80

// same read-out, input: `CCn1cc(C(=O)[O-])c(=O)c2ccc(C)nc21.CCn1cc(C(=O)[O-])c(=O)c2ccc(C)nc21.O.O.O.O.[Eu+3].[OH-]`
0.71

// same read-out, input: `CCn1cc(C(=O)[O-])c(=O)c2ccc(C)nc21.CCn1cc(C(=O)[O-])c(=O)c2ccc(C)nc21.O.O.O.[La+3].[OH-]`
1.20

---

# TESTED ON: human serum albumin (HSA) (Homo sapiens, UniProt P02768)
# Construct: purchased Sigma-Aldrich Chemical Co. (Schnelldorf, Germany)
# Sequence (P02768 25-609): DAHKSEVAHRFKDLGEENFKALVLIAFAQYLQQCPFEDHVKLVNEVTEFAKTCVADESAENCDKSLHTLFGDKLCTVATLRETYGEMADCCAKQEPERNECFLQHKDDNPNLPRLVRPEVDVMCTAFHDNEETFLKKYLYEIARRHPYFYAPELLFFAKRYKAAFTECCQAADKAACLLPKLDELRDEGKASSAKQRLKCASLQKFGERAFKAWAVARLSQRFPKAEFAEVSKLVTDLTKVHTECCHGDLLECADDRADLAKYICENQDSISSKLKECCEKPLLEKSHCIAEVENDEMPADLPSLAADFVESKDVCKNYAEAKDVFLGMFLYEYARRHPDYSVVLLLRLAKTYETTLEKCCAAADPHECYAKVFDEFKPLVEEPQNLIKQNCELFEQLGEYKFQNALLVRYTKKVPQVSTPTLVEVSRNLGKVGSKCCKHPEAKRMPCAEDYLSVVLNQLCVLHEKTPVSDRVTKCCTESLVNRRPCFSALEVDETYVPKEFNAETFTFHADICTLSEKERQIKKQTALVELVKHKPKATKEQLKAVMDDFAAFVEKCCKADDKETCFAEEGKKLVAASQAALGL
# PROCEDURE TEXT: HSA fluorescence quenching binding study
# EXPERIMENTAL SETUP: HSA 2.5 µM, 298 K; read-out: Ka (association binding constant), HSA
READOUT: pKd
Please treat pKd as minus the base-10 logarithm of the molar concentration.

# value lookup — system human serum albumin (HSA) (Homo sapiens, UniProt P02768), readout pKd, item `CCn1cc(C(=O)O)c(=O)c2ccc(C)nc21`
5.34
